# testedSystem: human ROCK1 (Homo sapiens, UniProt Q13464)
# Sequence (Q13464 1-727): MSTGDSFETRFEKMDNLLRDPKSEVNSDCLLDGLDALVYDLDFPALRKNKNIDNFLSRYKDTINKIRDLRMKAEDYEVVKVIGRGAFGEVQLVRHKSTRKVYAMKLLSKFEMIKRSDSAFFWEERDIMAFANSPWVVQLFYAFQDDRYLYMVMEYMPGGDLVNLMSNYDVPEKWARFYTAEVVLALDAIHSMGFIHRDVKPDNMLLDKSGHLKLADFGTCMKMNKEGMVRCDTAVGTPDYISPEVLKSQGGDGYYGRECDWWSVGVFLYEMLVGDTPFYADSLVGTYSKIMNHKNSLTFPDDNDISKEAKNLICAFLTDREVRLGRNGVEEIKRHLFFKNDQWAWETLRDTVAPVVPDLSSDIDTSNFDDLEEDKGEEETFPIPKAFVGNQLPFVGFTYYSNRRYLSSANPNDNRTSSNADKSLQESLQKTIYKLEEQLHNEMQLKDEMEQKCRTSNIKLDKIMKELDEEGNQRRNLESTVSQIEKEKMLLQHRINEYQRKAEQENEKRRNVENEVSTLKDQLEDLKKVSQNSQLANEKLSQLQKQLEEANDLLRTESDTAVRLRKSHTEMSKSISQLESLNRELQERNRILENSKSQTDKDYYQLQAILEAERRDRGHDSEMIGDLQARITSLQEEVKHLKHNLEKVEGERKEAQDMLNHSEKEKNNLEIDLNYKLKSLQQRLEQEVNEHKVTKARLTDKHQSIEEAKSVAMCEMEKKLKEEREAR
readoutName: IC50

Prompt line: State IC50 on human ROCK1 (Homo sapiens, UniProt Q13464). Entry: NCCN[C@H]1CCN(S(=O)(=O)c2cccc3cncc(Cl)c23)C1 [Example 19-32]
Response line: 1000 to 3000 nM

Prompt line: State IC50 on human ROCK1 (Homo sapiens, UniProt Q13464). Entry: Cc1cncc2cccc(S(=O)(=O)N3CC[C@H](NC4CCCC4)C3)c12 [Example 8-29]
Response line: 1000 to 3000 nM

Prompt line: State IC50 on human ROCK1 (Homo sapiens, UniProt Q13464). Entry: NCC1CN(S(=O)(=O)c2cccc3cncc(Cl)c23)C1 [Example 60]
Response line: 1000 to 3000 nM

Prompt line: State IC50 on human ROCK1 (Homo sapiens, UniProt Q13464). Entry: Cc1cncc2cccc(S(=O)(=O)N3CC[C@H](NCC4CC4)C3)c12 [Example 8-26]
Response line: < 1000 nM

More entries:
Prompt line: State IC50 on human ROCK1 (Homo sapiens, UniProt Q13464). Entry: NCCN[C@H]1CCN(S(=O)(=O)c2cccc3cncc(Br)c23)C1 [Example 1-31]
Response line: < 1000 nM

Prompt line: State IC50 on human ROCK1 (Homo sapiens, UniProt Q13464). Entry: O=C(Cn1cnnn1)N[C@H]1CCN(S(=O)(=O)c2cccc3cncc(Cl)c23)C1 [Example 85]
Response line: 1000 to 3000 nM

Prompt line: State IC50 on human ROCK1 (Homo sapiens, UniProt Q13464). Entry: NCC(=O)N[C@H]1CCN(S(=O)(=O)c2cccc3cncc(Cl)c23)C1 [Example 58-1]
Response line: 1000 to 3000 nM

Prompt line: State IC50 on human ROCK1 (Homo sapiens, UniProt Q13464). Entry: CN[C@H]1CCN(S(=O)(=O)c2cccc3c(N)ncc(Br)c23)C1 [Example 42-1]
Response line: < 1000 nM

Prompt line: State IC50 on human ROCK1 (Homo sapiens, UniProt Q13464). Entry: Cc1cncc2cccc(S(=O)(=O)N3CC(N)C3)c12 [Example 26]
Response line: < 1000 nM

---

pIC50: −log10 of the molar value.
For human ROCK1 (Homo sapiens), measured pIC50 is reported for the entries below.

Look over these answered cases.
Prompt line: State pIC50 on human ROCK1 (Homo sapiens). Entry: Cc1ccc(CN[C@H]2CCN(S(=O)(=O)c3cccc4cncc(C)c34)C2)o1 [Example 8-16]
Response line: 5.52 to 6.00

Prompt line: State pIC50 on human ROCK1 (Homo sapiens). Entry: Cc1ccc(CN[C@H]2CCN(S(=O)(=O)c3cccc4cncc(C)c34)C2)s1 [Example 8-18]
Response line: 5.52 to 6.00

Prompt line: State pIC50 on human ROCK1 (Homo sapiens). Entry: N[C@@H]1CCCN(S(=O)(=O)c2cccc3cncc(Cl)c23)C1 [Example 21-2]
Response line: 5.52 to 6.00

We next turn to a different compound, shown below.
Prompt line: State pIC50 on human ROCK1 (Homo sapiens). Entry: CN[C@H]1CCN(S(=O)(=O)c2cccc3c(O)ncc(Cl)c23)C1 [Example 36-1]
Response line: > 6.00

---

For human ROCK1 (Homo sapiens), measured IC50 is reported for the entries below.

Prompt line: Provide IC50 value for the following molecule: CCN[C@H]1CCN(S(=O)(=O)c2cccc3cncc(Cl)c23)C1
Response line: 1000 to 3000 nM

Prompt line: Provide IC50 value for the following molecule: Cc1cncc2cccc(S(=O)(=O)N3CC[C@H](NCCCNC(=O)Nc4ccccc4)C3)c12
Response line: < 1000 nM

We next turn to a different molecule, shown below.
Prompt line: Provide IC50 value for the following molecule: CN[C@H]1CCN(S(=O)(=O)c2cccc3cncc(C)c23)C1
Response line: < 1000 nM

# credit: patent US7964613B2
